# TARGET SYSTEM: Nucleoprotein (Lymphocytic choriomeningitis virus (strain Armstrong))
# TEST: qHTS for Inhibitors of the Functional Ribonucleoprotein Complex (vRNP) of Lymphocytic Choriomeningitis Arenaviruses (LCMV): LCMV Primary Screen - GLuc reporter signal (AID 1347086); note: % is set by controls: 0 for no effect and ±100 for the full control effect; nearly all actives have a fitted effect of over 70% in size
# EXPERIMENTAL SETUP: LCMV minigenome vRNP cell assay, Gaussia luciferase reporter; series mostly up to 57.5 µM
Inconclusive results are not listed. Active and inactive are the calls of the source. Calls come from the whole dose curve.
MEASURED METRIC: outcome

These solved cases illustrate the format of a correct answer.
Nc1ccc(-c2nc3ccc(-c4nc5ccc(N)cc5[nH]4)cc3[nH]2)cc1 = inactive
CCN1/C(=C/C(C)=O)Sc2ccc(OC)cc21 = inactive
CC(=O)O[C@H]1C2[C@@H](OC(=O)Cc3ccccc3)[C@@H](C)C[C@]2(OC(C)=O)C(=O)/C(C)=C/[C@@H]2[C@H](CC[C@@]13CO3)C2(C)C (stereo not given in full) = inactive
CCCCCCCCCCC(C)=O = inactive
CC(=O)/C(C)=N/O = inactive

Request: So what's the measured outcome for this one? `CCCCCCCCc1ccc(-c2ccc(C(=O)O)cc2)cc1`
Result: inactive

Request: Would you mind doing COC(=O)C(N)Cc1ccc(Cl)cc1 (stereo not given) as well?
Result: inactive

Request: `C=C(C)[C@@H]1CC=C(C=O)CC1`
Result: inactive

Request: What do you have for C=C1C[C@@]23CC[C@H]4[C@@](C)(CCC[C@@]4(C)C(=O)OC4OC(CO)C(O)C(O)C4O)[C@@H]2CC[C@]1(OC1OC(CO)C(O)C(O)C1OC1OC(CO)C(O)C(O)C1O)C3 (stereo not given in full) ?
Result: inactive

Request: Likewise for `COc1ccc(C[C@@H]2c3cc(O)c(OC)cc3CCN2C)cc1O` ?
Result: inactive

====

# TARGET SYSTEM: DNA dC->dU-editing enzyme APOBEC-3G (Homo sapiens) (UniProt Q9HC16)
# Sequence (Q9HC16 whole entry, looked up): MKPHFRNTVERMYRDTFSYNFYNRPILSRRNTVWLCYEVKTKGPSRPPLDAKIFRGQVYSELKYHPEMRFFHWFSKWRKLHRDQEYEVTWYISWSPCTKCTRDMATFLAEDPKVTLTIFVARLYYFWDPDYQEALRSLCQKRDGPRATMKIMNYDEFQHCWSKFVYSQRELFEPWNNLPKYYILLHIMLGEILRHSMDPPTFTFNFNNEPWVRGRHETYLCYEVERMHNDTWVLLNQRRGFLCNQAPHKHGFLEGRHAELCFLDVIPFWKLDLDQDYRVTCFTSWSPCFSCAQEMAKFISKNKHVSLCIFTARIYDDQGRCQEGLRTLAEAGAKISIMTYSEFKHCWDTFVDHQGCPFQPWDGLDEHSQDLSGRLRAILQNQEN
# TEST: qHTS for inhibitors of Vif-A3G interactions: Validation (AID 588379); note: 0% is about no effect
# EXPERIMENTAL SETUP: Vif-A3G protein interaction assay; series mostly up to 46.1 µM
# Method: The recent discovery and characterization of host restriction factors, which provide a potent defense to invading retroviruses, has provided new targets for antiviral drug development. […] 5 uL of 700 cells/well of A3G-YFP cells are dispensed into black, clear bottom plates. […] The plates are incubated overnight at 37 deg C and then read on the TTP Acumen (Ex 488/ Em 500-530).
The source made the active and inactive calls. The call rests on the fitted dose curve; in most records, active means well fitted inhibition curve with a large enough effect; inconclusive means small, poorly fitted or top-dose-only effect; inactive means flat fitted curve, though single readings scatter.
Give your call using only these classes: YES (active), NO (inactive)

Here are 5 compounds together with their reported answers.
CN[C@@H]1C[C@H](c2ccc(Cl)c(Cl)c2)c2ccccc21 = NO
O=C1NCN(c2ccccc2)C12CCN(C[C@H]1COc3ccccc3O1)CC2 = NO
CC[C@]1(C2=NCCN2)Cc2ccccc2O1 = NO
O=C1CC[C@@]2(O)[C@H]3Cc4ccc(O)c5c4[C@@]2(CCN3CC2CC2)[C@@H]1O5 = NO
N[C@H](Cc1o[nH]c(=O)c1Cl)C(=O)O = NO

Request: Check the results log: what was the call for CC(C)(O)[C@@H]1[C@H]2OC(=O)[C@@H]1[C@]1(O)C[C@H]3O[C@]34C(=O)O[C@H]2[C@@]14C (tested in a mixture with another compound) ?
Result: NO

Request: Ok, now `CCCCCCCCCOc1ccc2[nH]cc(CCN)c2c1`
Result: NO

====

The following molecules are listed with their measured activity change, negative = cytotoxicity values.
# Tested on: PA-1
# TEST: Primary qHTS to identify gynecologic anti-cancer compounds using libraries of approved drugs and bioactive compounds (AID 1345084); note: nearly all actives have a fitted effect of over 55% in size; for activity change, negative = cytotoxicity: % is set by controls: 0 for no effect and ±100 for the full control effect
# EXPERIMENTAL SETUP: Gynecologic cancer cell panel viability, ATPlite luminescence, 48 h; series mostly up to 57.5 µM
Results filed as inconclusive are left out. Calls of active or inactive are those of the source. Calls follow the shape of the dose curve; as a rule, active = well fitted cell-killing curve with a large enough effect; inconclusive = small, poorly fitted or top-dose-only effect, or effect the other way; inactive = flat fitted curve, though single readings scatter. Where a SMILES comes first, the peptide text is derived from it. [ ]: non-standard residue; d: D form. Ala(indol-2-yl) = N[C@@H](Cc1cc2ccccc2[nH]1)C(=O)O; Aib = CC(C)(N)C(=O)O

C[C@H]1CC[C@@H]2[C@@H](C)[C@H]3[C@H](C[C@H]4[C@@H]5CC=C6CC(O[C@@H]7O[C@H](CO)[C@@H](O)[C@H](O[C@@H]8O[C@H](CO)[C@@H](O)[C@H](O)[C@H]8O)[C@@H]7O[C@@H]7O[C@@H](C)[C@H](O)[C@@H](O)[C@H]7O)CC[C@]6(C)[C@H]5CC[C@]34C)N2C1 (stereo not given in full) = 7.63% [at 11.6 µM] (inactive)
CN(CC[C@H](N)CC(=O)N[C@H]1C=C[C@@H](n2ccc(N)nc2=O)O[C@@H]1C(=O)O)C(=N)N = 5.22% [at 11.6 µM] (inactive)
CC(C)(NC(=O)[C@@H](N)Cc1ccc(O)cc1)C(=O)N[C@@H](Cc1cc2ccccc2[nH]1)C(=O)N[C@@H](Cc1ccccc1)C(=O)O (H-Y[Aib][Ala(indol-2-yl)]F-OH) = 2.34% [at 11.6 µM] (inactive)
CO[C@H]1C[C@H](O[C@H]2CC[C@@]3(C)C(=CCC4C3CC[C@]3(C)[C@@H](C5=CC(=O)OC5)CC[C@]43O)C2)O[C@@H](C)[C@@H]1O[C@@H]1O[C@H](CO[C@@H]2O[C@H](CO)[C@@H](O)[C@H](O)[C@H]2O)[C@@H](O)[C@H](O)[C@H]1O (stereo not given in full) = 10.4% [at 11.6 µM] (inactive)

Proceeding to the next molecule to report its activity change, negative = cytotoxicity.
Request: Give its activity change, negative = cytotoxicity value. Item: Nc1ncnc2c1ncn2[C@@H]1O[C@@H]2COP(O)(=S)O[C@H]2[C@H]1O (stereo not given in full)
Result: 15.5% [at 11.6 µM] (inactive)

====

# Test system: KB-3-1
# TEST: Cytotoxic Profiling of Annotated Libraries Using Quantitative High-Throughput Screening (AID 1296008); note: nearly all actives have a fitted effect of over 60% in size; note: potency is the fitted concentration of half-maximal effect
# EXPERIMENTAL SETUP: Five cell lines viability, CellTiter-Glo ATP luminescence, 48-72 h
Results filed as inconclusive are left out. Activity calls are given as the source filed them. The call rests on the fitted dose curve; in most records, active means well fitted inhibition curve with a large enough effect; inconclusive means small, poorly fitted or top-dose-only effect; inactive means flat fitted curve, though single readings scatter.
MEASURED METRIC: Potency

Observe how each entry below is paired with its result.
CO[C@H]1C[C@H](O[C@H]2CC[C@]3(C=O)[C@H]4CC[C@]5(C)[C@@H](C6=CC(=O)OC6)CC[C@]5(O)[C@@H]4CC[C@]3(O)C2)O[C@H](C)[C@H]1O = 126 nM (active)
C[C@@H]1O[C@@H](O[C@H]2CC[C@@]3(C)C(CC[C@@H]4C3CC[C@]3(C)[C@@H](C5=CC(=O)OC5)CC[C@]43O)C2)[C@H](O)[C@H](O)[C@H]1O (some centres undefined) = 796 nM (active)
Fc1cc(F)c2c(c1)[C@H]1C=CC[C@H]1C(c1cccnc1)N2 (some centres undefined) = 4110 nM (active)
O=C1Nc2ccc3ncsc3c2/C1=C/c1cnc[nH]1 = 2310 nM (active)
CC1CCCC(=O)CCC/C=C/c2cc(O)cc(O)c2C(=O)O1 (centres undefined) = inactive

Request: Param readout= Potency; system= KB-3-1; entry= CC(=O)O[C@H]1C[C@@H](C)O[C@H]2O[C@@H]3CC4CC[C@@H]5C(CC[C@]6(C)[C@@H](C7=CC(=O)OC7)CC[C@]56O)[C@@]4(C=O)C[C@H]3O[C@]21O (some centres undefined) ; returns value.
Result: 68.5 nM (active)

Request: Another: `CC(=O)O[C@H]1CN2CCC1CC2`
Result: inactive

Request: Now this one: `CC(=O)OC[C@]12C[C@H](O)C(C)=C[C@H]1O[C@@H]1[C@H](O)[C@@H](OC(C)=O)[C@@]2(C)[C@]12CO2`
Result: 32.1 nM (active)

Request: What about CNc1ccc2oc(C[C@H]3O[C@@]4(CC[C@H]3C)O[C@H](C(C)C(=O)c3ccc[nH]3)[C@H](C)C[C@H]4C)nc2c1C(=O)O (some centres undefined) ?
Result: 2310 nM (active)

====

# Test system: CASKI
# TEST: Primary qHTS to identify gynecologic anti-cancer compounds using libraries of approved drugs and bioactive compounds (AID 1345084); note: nearly all actives have a fitted effect of over 55% in size
# EXPERIMENTAL SETUP: Gynecologic cancer cell panel viability, ATPlite luminescence, 48 h; series mostly up to 57.5 µM
Results filed as inconclusive are left out. The source made the active and inactive calls. The call rests on the fitted dose curve; in most records, active means well fitted cell-killing curve with a large enough effect; inconclusive means small, poorly fitted or top-dose-only effect, or effect the other way; inactive means flat fitted curve, though single readings scatter.
Choose one outcome from this list and give only that: YES for active, NO for inactive

Take a look at these entries with their results.
C[C@H]1C/C=C/[C@H]2[C@@H]3O[C@]3(C)[C@@H](C)[C@H]3[C@H](Cc4ccccc4)NC(=O)[C@]32OC(=O)O/C=C/[C@@](C)(O)C1=O = NO
CCN1C[C@]2(COC)CC[C@H](O)[C@@]34C5C[C@@H]6[C@@H](OC)C[C@@](OC(C)=O)(C5[C@@H]6OC(C)=O)[C@H]([C@H](OC)C23)[C@@H]14 (some centres not stated) = NO
C/C=C1/CN2CC[C@]34C(=Nc5ccc(OC)cc53)C2C[C@@H]1C4(CO)C(=O)OC (some centres not stated) = NO
C[C@]12CC[C@H](O)C[C@@H]1CC[C@@H]1[C@@H]2CC[C@]2(C)[C@@H](C3=CC(=O)OC3)CC[C@]12O = NO
Cc1sc2c(c1C)C(c1ccc(Cl)cc1)=NC(CC(=O)Nc1ccc(O)cc1)c1nnc(C)n1-2 (configuration not stated) = NO
CC1CCCC(O)CCC/C=C/c2cc(O)cc(O)c2C(=O)O1 (configuration not stated) = NO

Request: // outcome(item) with item = `CC(C)(O)/C=C/C(=O)[C@](C)(O)[C@H]1[C@H](O)C[C@@]2(C)[C@@H]3CC=C4[C@@H](C[C@H](O)C(=O)C4(C)C)[C@]3(C)C(=O)C[C@]12C`
Result: YES

Request: Quick one: CC(O)(c1ccccc1)C(Cc1ccc(Cl)cc1)n1cncn1 (configuration not stated)
Result: NO

Request: What about this compound? `Oc1ccc2c3c1O[C@H]1c4[nH]c5c(N=C=S)cccc5c4C[C@@]4(O)[C@@H](C2)N(CC2CC2)CC[C@]314`
Result: NO
